Reported EC50 values follow for various compounds
- Test system: WIL2-NS
- experimentalProtocol: Cytotoxicity against human WIL2-NS cells after 96 hrs by MTT assay
- Format: functional, cell-based

N#C/C(=C\c1c(-c2ccccc2)[nH]c2ccccc12)C(=O)c1cccs1; 6.4 µM
CCOC(=O)/C(=C/c1c(-c2ccccc2)[nH]c2ccccc12)C(=O)c1ccc([N+](=O)[O-])cc1; 2.4 µM
O=C(/C(=C\c1c(-c2ccccc2)[nH]c2ccccc12)C(=O)C(F)(F)F)c1ccco1; 2.3 µM
COc1ccc(-c2[nH]c3ccc(OC)cc3c2/C=C(\C#N)S(=O)(=O)c2ccccc2)cc1; 0.5 µM
O=C(C(=Cc1c(-c2ccccc2)[nH]c2ccccc12)C(=O)c1ccccc1)c1ccccc1; 72 µM
CCOC(=O)/C(=C\c1c(-c2ccccc2)[nH]c2ccccc12)C(C)=O; 2.7 µM
COCCOC(=O)/C(C#N)=C/c1c(-c2ccccc2)[nH]c2ccccc12; 2.2 µM
COc1cccc2c1C(=O)c1c(O)c3c(c(O)c1C2=O)C[C@@](O)(C(=O)CO)C[C@@H]3O[C@H]1C[C@H](N)[C@H](O)[C@H](C)O1; 0.04 µM
CCOC(=O)/C(=C/c1c(-c2ccccc2)[nH]c2ccccc12)C(=O)c1ccccc1; 12 µM
COc1ccc2[nH]c(-c3ccccc3)c(/C=C(\C#N)S(=O)(=O)c3ccccc3)c2c1; 2.8 µM

Record request: EC50 value, item "COc1ccc(-c2[nH]c3ccccc3c2/C=C(\C#N)S(=O)(=O)c2ccccc2)cc1"
0.4 µM

Now give it for "N#C/C(=C\c1c(-c2ccccc2)[nH]c2ccccc12)C(=O)c1ccc(Cl)cc1" too.
4.5 µM

Next compound up: "CC(=O)/C(=C/c1c(-c2ccccc2)[nH]c2ccccc12)C(=O)c1ccccc1"
12 µM

###

- System: NCI-H226
- experimentalProtocol: Growth inhibition of human NCI-H226 cells after 48 hrs by sulforhodamine B assay
- Assay type: functional
- conditionSummary: NCI-H226, 48 h
Labelling: GI50 reported below 4 µM becomes 1; at or above becomes -1.

Could you please tell me whether GI50 recorded for "CCOC(=O)C(=Cc1c(-c2ccccc2)[nH]c2ccccc12)C(=O)OCC" is less than 4 µM?
-1

Item: "CC(=O)/C(=C\c1c(-c2ccccc2)[nH]c2ccccc12)S(C)(=O)=O"
-1

What do you get for "COc1ccc2[nH]c(-c3ccccc3)c(C=C(C#N)C#N)c2c1" ?
1

Would you kindly repeat that for "COc1ccc(-c2[nH]c3ccccc3c2C=C(C#N)C#N)cc1" ?
1

Same for "COC(=O)/C(=C\c1c(C)[nH]c2ccccc12)S(=O)(=O)c1ccccc1"
-1

Moving on to the next molecule: "COc1ccc(-c2[nH]c3ccc(OC)cc3c2C=C(C#N)C#N)cc1"
1

Now consider "COc1ccc2[nH]c(-c3ccccc3)c(/C=C(\C#N)S(=O)(=O)c3ccccc3)c2c1" .
-1

Try this molecule too: "N#C/C(=C\c1c(-c2ccccc2)[nH]c2ccccc12)C(=O)c1ccccc1"
-1

###

- System: A549
- experimentalProtocol: Growth inhibition of human A549 cells after 48 hrs by sulforhodamine B assay
- Type: functional
- conditionSummary: A549, 48 h
GI50 values for the molecules below.
Number only, in µM; omit the unit.

Look over these answered cases.
COc1ccc2[nH]c(-c3ccccc3)c(/C=C(\C#N)S(=O)(=O)c3ccccc3)c2c1; 6
N#CC(C#N)=Cc1c(-c2ccccc2)[nH]c2ccccc12; 4.6
COc1ccc2[nH]c(-c3ccccc3)c(C=C(C#N)C#N)c2c1; 7

// returns reported GI50 for input "CC(=O)/C(=C\c1c(-c2ccccc2)[nH]c2ccccc12)S(C)(=O)=O"
7.3

What do you have for "COc1ccc(-c2[nH]c3ccc(OC)cc3c2/C=C(\C#N)S(=O)(=O)c2ccccc2)cc1" ?
2.8
